assay: Tissue distribution study in rabbits after oral Panax notoginseng extract with or without Borneol; type: in vivo, New Zealand rabbits; settings: New Zealand, rabbit, liver, po, 3 mL·kg^−1, 0.5 h, oral Panax notoginseng with Borneol, read-out: Concentration in liver
value.type: concentration at 0.5 h (ng/g)

- compound: "CC(C)=CCC[C@](C)(O[C@@H]1O[C@H](CO)[C@@H](O)[C@H](O)[C@H]1O)[C@H]1CC[C@]2(C)[C@@H]1[C@H](O)C[C@@H]1[C@@]3(C)CC[C@H](O)C(C)(C)[C@@H]3[C@@H](O[C@@H]3O[C@H](CO)[C@@H](O)[C@H](O)[C@H]3O)C[C@]12C [GRg1, ginsenoside Rg1]"
  value.type: "concentration at 0.5 h"
  units.of.measure: "ng/g"
  value.observed: 50100
- compound: "CC(C)=CCC[C@](C)(O[C@@H]1O[C@H](CO)[C@@H](O)[C@H](O)[C@H]1O)[C@H]1CC[C@]2(C)[C@@H]1[C@H](O)C[C@@H]1[C@@]3(C)CC[C@H](O)C(C)(C)[C@@H]3[C@@H](O[C@@H]3O[C@H](CO)[C@@H](O)[C@H](O)[C@H]3O[C@@H]3O[C@@H](C)[C@H](O)[C@@H](O)[C@H]3O)C[C@]12C [GRe, ginsenoside Re]"
  value.type: "concentration at 0.5 h"
  units.of.measure: "ng/g"
  value.observed: 3600

* * *

Quick reference for concentration at 1 h among some molecules
assay: Tissue distribution study in rabbits after oral Panax notoginseng extract with or without Borneol; assay type: in vivo, New Zealand rabbits; conditions: New Zealand, rabbit, kidney, po, 1.0 h, oral Panax notoginseng with Borneol, read-out: Concentration in kidney

- molecule: "CC(C)=CCC[C@](C)(O[C@@H]1O[C@H](CO)[C@@H](O)[C@H](O)[C@H]1O)[C@H]1CC[C@]2(C)[C@@H]1[C@H](O)C[C@@H]1[C@@]3(C)CC[C@H](O)C(C)(C)[C@@H]3[C@@H](O[C@@H]3O[C@H](CO)[C@@H](O)[C@H](O)[C@H]3O[C@@H]3O[C@@H](C)[C@H](O)[C@@H](O)[C@H]3O)C[C@]12C [GRe, ginsenoside Re]"
  concentration at 1 h (ng/g): 2430
- molecule: "CC(C)=CCC[C@](C)(O[C@@H]1O[C@H](CO)[C@@H](O)[C@H](O)[C@H]1O)[C@H]1CC[C@]2(C)[C@@H]1[C@H](O)C[C@@H]1[C@@]3(C)CC[C@H](O)C(C)(C)[C@@H]3[C@@H](O[C@@H]3O[C@H](CO)[C@@H](O)[C@H](O)[C@H]3O)C[C@]12C [GRg1, ginsenoside Rg1]"
  concentration at 1 h (ng/g): 16900

* * *

Quick reference for concentration at 0.5 h among some compounds
assay: Tissue distribution study in rabbits after oral Panax notoginseng extract with or without Borneol; type: in vivo, New Zealand rabbits; conditions: New Zealand, rabbit, brain, po, 3 mL·kg^−1, 0.5 h, oral Panax notoginseng with Borneol, read-out: Concentration in brain

- compound: "CC(C)=CCC[C@](C)(O[C@@H]1O[C@H](CO)[C@@H](O)[C@H](O)[C@H]1O)[C@H]1CC[C@]2(C)[C@@H]1[C@H](O)C[C@@H]1[C@@]3(C)CC[C@H](O)C(C)(C)[C@@H]3[C@@H](O[C@@H]3O[C@H](CO)[C@@H](O)[C@H](O)[C@H]3O[C@@H]3O[C@@H](C)[C@H](O)[C@@H](O)[C@H]3O)C[C@]12C [GRe, ginsenoside Re]"
  units.of.measure: "ng/g"
  concentration at 0.5 h: 1800
- compound: "CC(C)=CCC[C@](C)(O[C@@H]1O[C@H](CO)[C@@H](O)[C@H](O)[C@H]1O)[C@H]1CC[C@]2(C)[C@@H]1[C@H](O)C[C@@H]1[C@@]3(C)CC[C@H](O)C(C)(C)[C@@H]3[C@@H](O[C@@H]3O[C@H](CO)[C@@H](O)[C@H](O)[C@H]3O)C[C@]12C [GRg1, ginsenoside Rg1]"
  units.of.measure: "ng/g"
  concentration at 0.5 h: 20600
